Literature compilation of pIC50 measurements on Carbonic anhydrase 2 (Homo sapiens, UniProt P00918).
Formally, pIC50 is defined as -log10 of the concentration c, with c in mol/L.

# COc1cc2c(cc1OS(N)(=O)=O)CC[C@@H]1[C@@H]2CC[C@]2(C)C(=O)CC[C@@H]12 with Carbonic anhydrase 2 (Homo sapiens, UniProt P00918): pIC50 is 6.42

# CCCCCCCCS(=O)(=O)C(C)S(N)(=O)=O (stereo not drawn) with Carbonic anhydrase 2 (Homo sapiens, UniProt P00918): pIC50 is 5.60

# COc1ccc2oc(S(N)(=O)=O)cc2c1 with Carbonic anhydrase 2 (Homo sapiens, UniProt P00918): pIC50 is 8.29

# CN(C)Cc1cc(S(=O)(=O)c2csc(S(N)(=O)=O)c2)ccc1O.Cl with Carbonic anhydrase 2 (Homo sapiens, UniProt P00918): pIC50 is 8.05

# CN1CCN(Cc2ccccc2S(=O)(=O)c2csc(S(N)(=O)=O)c2)CC1.Cl with Carbonic anhydrase 2 (Homo sapiens, UniProt P00918): pIC50 is 7.64

# N/C(S)=N/Nc1ccc(S(N)(=O)=O)cc1 with Carbonic anhydrase 2 (Homo sapiens, UniProt P00918): pIC50 is 6.54

# CO[C@@H]1O[C@H](CNC(=O)c2ccc(S(N)(=O)=O)cc2)[C@@H](O)[C@H](O)[C@H]1O with Carbonic anhydrase 2 (Homo sapiens, UniProt P00918): pIC50 is 7.00

# CCN(CC)Cc1cc(S(=O)(=O)c2csc(S(N)(=O)=O)c2)ccc1O.Cl with Carbonic anhydrase 2 (Homo sapiens, UniProt P00918): pIC50 is 8.05

# O=C1/C(=C\c2ccc(O)c(O)c2)S/C(=N/c2ccccc2)N1Cc1ccncc1 with Carbonic anhydrase 2 (Homo sapiens, UniProt P00918): pIC50 is 4.57

# CN(C)Cc1cc(S(=O)(=O)c2coc(S(N)(=O)=O)c2)ccc1O.Cl with Carbonic anhydrase 2 (Homo sapiens, UniProt P00918): pIC50 is 8.15

# CCCCCCCCS(=O)(=O)C(Cl)S(N)(=O)=O (stereo not drawn) with Carbonic anhydrase 2 (Homo sapiens, UniProt P00918): pIC50 is 7.92

# NS(=O)(=O)c1ccc(N2C(=O)CC/C2=C\C(=O)c2cccc(F)c2)cc1 with Carbonic anhydrase 2 (Homo sapiens, UniProt P00918): pIC50 is 9.34

----------
Literature compilation of IC50 measurements on Carbonic anhydrase 2 (Homo sapiens).
Mark TRUE for IC50 under 0.01 µM, FALSE if at or over.

In: Say whether its IC50 is strictly beneath 0.01 µM. Entry: O=P(O)(O)C(Nc1cccc(C(F)(F)F)c1)P(=O)(O)O
Out: FALSE

In: Say whether its IC50 is strictly beneath 0.01 µM. Entry: Nc1ccc2cc(S(N)(=O)=O)oc2c1
Out: FALSE

In: Say whether its IC50 is strictly beneath 0.01 µM. Entry: CCOCCNCc1cc2cc(S(N)(=O)=O)oc2s1
Out: TRUE

In: Say whether its IC50 is strictly beneath 0.01 µM. Entry: O=P(O)(O)CP(=O)(O)O
Out: FALSE

In: Say whether its IC50 is strictly beneath 0.01 µM. Entry: NS(=O)(=O)c1nc2ccc([N+](=O)[O-])cc2s1
Out: FALSE

In: Say whether its IC50 is strictly beneath 0.01 µM. Entry: CN1CCN(Cc2ccc(S(=O)(=O)c3csc(S(N)(=O)=O)c3)cc2)CC1.Cl
Out: FALSE

In: Say whether its IC50 is strictly beneath 0.01 µM. Entry: Cc1ccnc2c(S)cccc12
Out: FALSE

In: Say whether its IC50 is strictly beneath 0.01 µM. Entry: Cn1c(-c2ccc(Cl)cc2)nc2cc(C(=O)O)ccc21
Out: FALSE

In: Say whether its IC50 is strictly beneath 0.01 µM. Entry: COc1ccc(C(=O)c2coc(S(N)(=O)=O)c2)cc1
Out: TRUE
